target: arrestin-3 (1-393) (Bos taurus); construct: residues 1-393 (stop codon at L394, deletes 394-408), pTrcHisB, E. coli BL21 Gold, purified by heparin, Q/SP and size exclusion columns; 43 kD monomer, 134 kD trimer with IP6; assay: microscale thermophoresis, two-site fit, pre-IR fluorescence change
Sequence (P32120 1-393 isoform P32120-2): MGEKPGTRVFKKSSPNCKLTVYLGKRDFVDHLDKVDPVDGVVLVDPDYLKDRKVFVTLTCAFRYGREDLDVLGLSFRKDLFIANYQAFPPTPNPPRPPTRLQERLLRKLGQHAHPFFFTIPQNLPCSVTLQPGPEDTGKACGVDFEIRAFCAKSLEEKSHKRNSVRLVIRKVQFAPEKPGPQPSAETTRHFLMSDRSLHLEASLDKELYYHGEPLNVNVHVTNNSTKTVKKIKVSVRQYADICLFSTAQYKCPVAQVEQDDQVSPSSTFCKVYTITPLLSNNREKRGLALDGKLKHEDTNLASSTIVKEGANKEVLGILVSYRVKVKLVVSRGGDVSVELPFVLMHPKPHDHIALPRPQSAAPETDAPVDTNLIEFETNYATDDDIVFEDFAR
propertyName: Kd
Please state the number and follow it with the unit.

The compound listed as O=P(O)(O)O[C@H]1[C@H](OP(=O)(O)O)[C@@H](OP(=O)(O)O)[C@H](OP(=O)(O)O)[C@@H](OP(=O)(O)O)[C@H]1OP(=O)(O)O [IP6] shows Kd equal to 57 nM

The measurements presented in this section are drawn from paper PMC5681653.
